src = the NTF2 design screens of Basanta et al. (2020)

Examples of sequences with documented protease stability score follow.
assay: protease stability score; higher = more stable; yeast display proteolysis, trypsin and chymotrypsin;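 further: relative to predicted unfolded state with 0 unfolded-like and 1 meaning tenfold more protease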
measurement name: protease stability score

INSERT INTO results (sequence_input, reported_value) VALUES
  ('SEEEDESKLATELLIKLLRTGNEHLSERLMDPNMRIVVNGVELHGREEAQRHMREMITQIKNAKIEIRDERTQGEYIKVNMILHYGDKTIDLRVVLVKVDGRWKITEIVLN', 1.8),
  ('SEDEELIRRFLDEFEKVIRTGNETELQRLMDPNTRFEIDGVEYHGREEVSNLLIDWAKELRLHSLHFRHIELQGEKIKIDTRENREVDGKRHVRRTEIILIKIDGRWYLHSMRYE', 1.98),
  ('DEMERIIETALELLIKSERTGDEDLYREFLDPHTIIDINGKIIHGREEFVRWFTEIRVHELKLRDMEIQGEFAIIYGEVDGRIGDKHFHTSVRLIVYKIDGRWIMRWNELN', 1.42);

###

experiment: protease stability score; higher = more stable; yeast display proteolysis, trypsin and chymotrypsin;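 further: relative to predicted unfolded state with 0 unfolded-like and 1 meaning tenfold more protease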
Examples of sequences with documented protease stability score follow.
measurement name: protease stability score

INSERT INTO results (sequence_input, reported_value) VALUES
  ('DEEEELTRLALEWLLKVSKTGDERLFREEFDPNVKLDINGRDFHGREEAVRVWLKFVHDAGFKHIEIERVLSFDGRLHLHGVEHIGDKEVETHILTEKFDGKWVMRSIKIN', 0.301),
  ('SEEDEEFRHVVERWVRAVTTGNEDELESLLDPNVRLDVGDKRTHGREKWTELFRHLRTQVHHIEITEKHTVGDKVHYRGTLDMTFYVDGVDVRSETETTLVMVKYNGRWQYTHVIIH', 1.15),
  ('DDEEEFIRKLFEDFYRAFLTGDWHELFELMDPNTRTEINGVHFHGRHIISEYLVTHIERVDHVSITLTRLDKIGDYLIIDSHLRQDVNGKKIHVRLHMHAHKIDGRWKIHRFEFE', 1.34);

###

test: protease stability score; higher = more stable; yeast display proteolysis, trypsin and chymotrypsin;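 further: relative to predicted unfolded state with 0 unfolded-like and 1 meaning tenfold more protease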
measurement name: protease stability score

INSERT INTO measurements (sequence_input, reported_value) VALUES
  ('DEEEKEAEDFFHDWVHSMLTGDEDTLRRMIDPHVKIQVGDKEFHGMKWATRMYREIRIEDMRLRRVHVINGKADIHSITHTNINGRQEDIHITIIIEKVDGRWILRSVIIR', 2.13),
  ('SEDEHRSRHDAELFLKFVKTGDEHHLQRFADPNVQFHQGEWEDHGRESLREQFRKFMEDLGADHSELESIRVHIQGDKMTVHIHVTFRVGDKTIKSTWRFYITKINGRWTMERMDVELH', 0.629),
  ('SEDEKRLLDLAKEWIHNWLTGDEESMQKLADPSTRYEIGDKELHGMEEVNRSIKISLDELRVKHIDIERVKAINGVVTIHTRIDVEFNGKRMIIETIIRIDIFNGRIKQVWVEFR', 1.21),
  ('DEQEESTRIAMELVLRSLKTGDERTVSELVDPNVRYEQGDKEYHGWESASEVVRRLGVDHFIIHDIKIQGNKLHLHGELVVGDYTLKYHIIVLKVNGRWQITRMHTI', 1.2),
  ('DEDTELDETISREIIHAEKTGNEDWLTKLIDPNPRIEINGRIFHGMDFWLKFLKDMGVDHIDVKRDRAYNGVLDMDGYIIVNGREIRTHIHIVIVDGKATHIRIEIR', 1.61),
  ('DEDKQHAEKVWRLFSKFVNTGDEESLNRLFDPDVKLRVGDKEFHGREEFVKFMSELYRRIDHVHWHFSHIEVVGEYIIIHGHTIFEVGDKKDSRDTRLIMFKVNGRWHIHHIRIE', 2.33),
  ('DERDEVLEDTARRVLEWLTTGNWEELAKYADPNVKNDINGRIDHGREEMSRRIREELHKVKNLKFNITYFDIIGDKVHFWGTLHYDGRTMETHIHIEVVDGRLHHMQFEIK', 0.983),
  ('DHIDEDAAHVSRVLLTLLRTGDEETLFQLLDPNMRVDVNGVELHGREEWWKHVYRRNKELGMEVKYHLHKLTVINGVAHIDFRIEIYIGDKRIEYRHEVHIEKINGVWLVREIREG', 1.47),
  ('DDDEHNAHHAVEIWIHLLRTGDEHMLERMFDPNTRIRFNGREFHGREEAHRFIEELLRTLGVDHSHITIHDMKIQGNKVHVDTRLTLIVGDKTYSRNTHLVILKVNGRWWLHSMHFN', 1.41),
  ('DHEEEKLKESLDRLEDINRTGDWHKIHDMLDPHVRVLVNGRKHHGRETATHIYREWRITDIQFKDIRLIGDKVHIHMESRVSVNGREHSVKSELILIKVDGQWYMHAEQFL', 1.05),
  ('DETEEEARHVFELIIEYHLTGDWDKWLRMFDPHVKLVVNGRDNHGREHAVHRLKEFLRQWRIHDVEVKSVDLQGDKVRVDGRLDGIVNGVREKTEVTLSLIVVDGKIKSHEVRIH', 1.51);
